Tested on: ATP;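 also: ATP exposure 15 min at 22 °C before imaging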
Test Name: switch fluorescence ratio, 500 uM ATP over buffer (Cy3 cluster intensity, sum of 5 cycles each) (fold (ratio)); higher = stronger signal-on switching upon ATP binding; sequences stand for … in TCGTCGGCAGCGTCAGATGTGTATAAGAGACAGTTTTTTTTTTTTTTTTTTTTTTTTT…TC
Measurement Parameters: aptamer strand: ATP DNA aptamer (quencher-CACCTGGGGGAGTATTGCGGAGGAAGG + anchor), 100 nM annealed; ATP concentration: 500 uM
Please go through the items and note down their switch fluorescence ratio.
Form rule: numeric answer, no unit written next to it.

stdin: Entry TTGTGAAGGC : reported switch fluorescence ratio = ?
stdout: 1.04

stdin: And for CAGGGGTGGG ?
stdout: 0.999

stdin: And for GGTTCAGATG ?
stdout: 1.01

stdin: And for TTATCGGGGT ?
stdout: 1.02

stdin: And for GGAGCCCGGT ?
stdout: 1.01

stdin: And for TACGGGGTAA ?
stdout: 0.995

stdin: And for ATGGAAGGGT ?
stdout: 0.988

stdin: And for TACGGTCGAG ?
stdout: 1.1

stdin: And for AATGGTTGGT ?
stdout: 0.994

stdin: And for AACCTGGTAT ?
stdout: 1.01

stdin: And for GGAATCTGAT ?
stdout: 0.996

stdin: And for AGAAAAGCTC ?
stdout: 1.02

stdin: And for TAATAGTATA ?
stdout: 1

stdin: And for ATTGGGACAG ?
stdout: 0.994

stdin: And for GTGGGATCTG ?
stdout: 0.989

stdin: And for TATGGGTTTG ?
stdout: 0.994

stdin: And for GTTTTGGGAC ?
stdout: 0.993

stdin: And for GGTTTTGAAG ?
stdout: 0.996

stdin: And for AGACGGCGTG ?
stdout: 0.98

stdin: And for AAGGTGAAGA ?
stdout: 1.04

stdin: And for TTAACGGCGC ?
stdout: 1.04

stdin: And for GACCTTTATA ?
stdout: 0.991

stdin: And for CACTTACGTT ?
stdout: 1.35

stdin: And for TTGAGTTTAA ?
stdout: 1

stdin: And for TTAGGGGTGT ?
stdout: 1.01

stdin: And for TTGGCCCGGG ?
stdout: 1.01

stdin: And for CATTAATTTT ?
stdout: 0.968

stdin: And for GGGGCAACGG ?
stdout: 1.05

stdin: And for ACGGTTCGGA ?
stdout: 1.02

stdin: And for GCGTATGGAC ?
stdout: 1.01

stdin: And for CGCGGTGCTC ?
stdout: 3.17

stdin: And for CGTAAAGCAG ?
stdout: 1.01

stdin: And for ATTCTGGGTT ?
stdout: 0.987

stdin: And for AGATGAGAGA ?
stdout: 1

stdin: And for TATACGTGGC ?
stdout: 0.939

stdin: And for GGTATAGAGA ?
stdout: 0.986

stdin: And for GGTGCTTAGG ?
stdout: 1.02

stdin: And for TAGTAATCGT ?
stdout: 1.01

stdin: And for TCGGTGGGAG ?
stdout: 0.981

stdin: And for GTTACCGTTT ?
stdout: 1.02

stdin: And for CGACGTGCGG ?
stdout: 0.994

stdin: And for GATGGCGGGT ?
stdout: 1.02

stdin: And for CTACTCCGTT ?
stdout: 1.29

stdin: And for TTTGGATTTA ?
stdout: 1.03

stdin: And for GTTACAAGAC ?
stdout: 1.21

stdin: And for GAATTTCGGT ?
stdout: 1.05

stdin: And for CGATGACATG ?
stdout: 0.988

stdin: And for GTTCTTTGTG ?
stdout: 1

stdin: And for GGTGCATAGC ?
stdout: 0.971

stdin: And for GGCTAGAAAA ?
stdout: 1

stdin: And for AGAGTTTCGA ?
stdout: 1.01

stdin: And for AGTTGGTTAT ?
stdout: 0.974

stdin: And for AGTGTTCGCT ?
stdout: 0.973

stdin: And for CCGAACACCT ?
stdout: 1.22

stdin: And for AGGGGGCCTG ?
stdout: 0.992

stdin: And for GGGGTATATC ?
stdout: 1

stdin: And for GAATGAACCA ?
stdout: 0.998

stdin: And for CGGAACTGGT ?
stdout: 1.04

stdin: And for GATGATAACG ?
stdout: 0.998

stdin: And for TCATGTTGCT ?
stdout: 1.01

stdin: And for TTCACTCTTT ?
stdout: 1.02

stdin: And for TTTGTGACAG ?
stdout: 1.02

stdin: And for GGGCAAGTGT ?
stdout: 1.06

stdin: And for AAGGCTGAGG ?
stdout: 0.985

stdin: And for TATGGGGAGT ?
stdout: 0.981

stdin: And for ATCGAGCATG ?
stdout: 1.03

stdin: And for TCGGAAGATT ?
stdout: 1.01

stdin: And for GGGTCAGTAG ?
stdout: 1.03

stdin: And for TTGAGATCCT ?
stdout: 1.03

stdin: And for CCTTGAAGGT ?
stdout: 0.984

stdin: And for TCTACGGGGG ?
stdout: 1.03

stdin: And for AAAGATTGAC ?
stdout: 1.01

stdin: And for GATGTGCCAG ?
stdout: 0.969

stdin: And for AGCAGGGGAC ?
stdout: 1.18

stdin: And for ATTGTGTACT ?
stdout: 1

stdin: And for CAGGGAGAGG ?
stdout: 1

stdin: And for ATAGTCCCTA ?
stdout: 1.01

stdin: And for GGGGCCCAGG ?
stdout: 1

stdin: And for TCGGAAGGAC ?
stdout: 1.14

stdin: And for TATATATGTA ?
stdout: 1.01

stdin: And for GCTTCTTGGC ?
stdout: 0.967

* * *

System: ATP;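 also: ATP exposure 15 min at 22 °C before imaging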
Test Name: switch fluorescence ratio, 500 uM ATP over buffer (Cy3 cluster intensity, sum of 5 cycles each) (fold (ratio)); higher = stronger signal-on switching upon ATP binding; sequences stand for … in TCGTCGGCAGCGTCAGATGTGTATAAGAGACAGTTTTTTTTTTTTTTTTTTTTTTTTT…TC
Measurement Parameters: aptamer strand: ATP DNA aptamer (quencher-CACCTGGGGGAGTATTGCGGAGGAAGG + anchor), 100 nM annealed; ATP concentration: 500 uM
Measure: switch fluorescence ratio
Form rule: numeric answer, no unit written next to it.

stdin: Reported switch fluorescence ratio for ATP, given TGTACAAAAT ?
stdout: 0.986

stdin: And for GTAGGCTAGT ?
stdout: 1

stdin: And for CATTAATTTG ?
stdout: 1.01

stdin: And for GGAGTCATGG ?
stdout: 1.04

stdin: And for ACTATGAAAA ?
stdout: 1.04

stdin: And for TGGGCGTTCT ?
stdout: 1.03

stdin: And for TTGATTGGGC ?
stdout: 0.989

stdin: And for TCTTGTTTTT ?
stdout: 0.977

stdin: And for TTGGTTGAGG ?
stdout: 0.974

stdin: And for CTGGTGTAGT ?
stdout: 1.03

stdin: And for TTAAACGCTT ?
stdout: 1.02

stdin: And for CGATAATTTA ?
stdout: 1

stdin: And for GGGGTGAC ?
stdout: 1

stdin: And for ATGGCGTAGT ?
stdout: 0.975

stdin: And for TTGCTATATT ?
stdout: 1.01

stdin: And for AAATTAAAAG ?
stdout: 0.984

* * *

Please go through the items and note down their switch fluorescence ratio.
System: ATP;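 also: ATP exposure 15 min at 22 °C before imaging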
Test Name: switch fluorescence ratio, 500 uM ATP over buffer (Cy3 cluster intensity, sum of 5 cycles each) (fold (ratio)); higher = stronger signal-on switching upon ATP binding; sequences stand for … in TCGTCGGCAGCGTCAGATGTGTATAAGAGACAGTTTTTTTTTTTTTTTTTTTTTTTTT…TC
Measurement Parameters: aptamer strand: ATP DNA aptamer (quencher-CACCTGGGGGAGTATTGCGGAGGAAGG + anchor), 100 nM annealed; ATP concentration: 500 uM

stdin: Reported switch fluorescence ratio for ATP, given GAGGGGTGGG ?
stdout: 1.04

stdin: And for CAAAAGTTGA ?
stdout: 1.01

stdin: And for TTAAAATCGA ?
stdout: 0.972

stdin: And for TAGGAAGGCA ?
stdout: 0.967

stdin: And for TGGAGTATTT ?
stdout: 0.952

stdin: And for CCAGACGGGC ?
stdout: 1.07

stdin: And for TATTGTGATA ?
stdout: 0.991

stdin: And for TCATGTTATG ?
stdout: 0.971

stdin: And for GCACTTGGTG ?
stdout: 1.02

stdin: And for ATTCAAGGTT ?
stdout: 0.973

* * *

Test system: ATP;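 also: ATP exposure 15 min at 22 °C before imaging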
Test Name: switch fluorescence ratio, 500 uM ATP over buffer (Cy3 cluster intensity, sum of 5 cycles each) (fold (ratio)); higher = stronger signal-on switching upon ATP binding; sequences stand for … in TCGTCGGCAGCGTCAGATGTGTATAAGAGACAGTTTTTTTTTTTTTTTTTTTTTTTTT…TC
Measurement Parameters: aptamer strand: ATP DNA aptamer (quencher-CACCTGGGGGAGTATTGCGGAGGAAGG + anchor), 100 nM annealed; ATP concentration: 500 uM
Please go through the items and note down their switch fluorescence ratio.
Form rule: numeric answer, no unit written next to it.

stdin: Entry GTTTCGGGTT : reported switch fluorescence ratio = ?
stdout: 0.986

stdin: And for CAAAAAAGGG ?
stdout: 1.02

stdin: And for CATTGTAATT ?
stdout: 0.981

stdin: And for ACGGCAGAGG ?
stdout: 1.09

stdin: And for AAGGGATAGG ?
stdout: 0.984

stdin: And for TTTCAGGTTA ?
stdout: 1.06

stdin: And for TCGTGAGGCT ?
stdout: 0.989

stdin: And for CGTATCATTG ?
stdout: 0.997

stdin: And for TGTGTGTGAA ?
stdout: 0.996

stdin: And for ACAAGGGCAT ?
stdout: 1.03

stdin: And for TCGGTATTTT ?
stdout: 1.01

stdin: And for CGTTACGGGG ?
stdout: 0.979

stdin: And for TATCTAAAGT ?
stdout: 1.01

stdin: And for TGATGCGTGT ?
stdout: 0.999

stdin: And for TTGTTTTTCC ?
stdout: 1.03

stdin: And for CCTAGTTTTT ?
stdout: 0.997

stdin: And for TTTAAGTGAG ?
stdout: 0.981

stdin: And for TTGTGGGAAA ?
stdout: 1.02
